- study_target: T1, human CTLA-4, full-length, expressed on transfected Expi293 cells (human, UniProt P16410 36-223)
- T1 construct: whole, on cells
- T1 sequence (P16410 36-223): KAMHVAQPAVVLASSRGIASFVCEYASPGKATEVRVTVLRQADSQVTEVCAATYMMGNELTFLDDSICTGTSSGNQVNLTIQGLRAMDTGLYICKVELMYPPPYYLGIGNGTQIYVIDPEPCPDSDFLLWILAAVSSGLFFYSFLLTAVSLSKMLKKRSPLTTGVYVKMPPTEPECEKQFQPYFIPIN
- procedure_text: flow cytometry, 100 nM, Expi293 cells with human CTLA-4
value_type: MFI (MFI)
Express the result in MFI but write the number alone.

q: Supply reported MFI belonging to this binder: variant ICOSL IgV-Fc fusion N52S/N57A/Q100A (Fc fusion) DTQEKEVRAMVGSDVELSCACPEGSRFDLNDVYVYWQTSESKTVVTYHIPQSSSLEAVDSRYRNRALMSPAGMLRGDFSLRLFNVTPQDEQKFHCLVLSASLGFQEVLSVEVTLHVAANFSVGSGGGGSEPKSSDKTHTCPPCPAPEAEGAPSVFLFPPKPKDTLMISRTPEVTCVVVDVSHEDPEVKFNWYVDGVEVHNAKTKPREEQYNSTYRVVSVLTVLHQDWLNGKEYKCKVSNKALPAPIEKTISKAKGQPREPQVYTLPPSREEMTKNQVSLTCLVKGFYPSDIAVEWESNGQPENNYKTTPPVLDSDGSFFLYSKLTVDKSRWQQGNVFSCSVMHEALHNHYTQKSLSLSPG
a: 233000

q: Supply reported MFI belonging to this binder: variant ICOSL IgV-Fc fusion N52T/N57K/Q100P (Fc fusion) DTQEKEVRAMVGSDVELSCACPEGSRFDLNDVYVYWQTSESKTVVTYHIPQTSSLEKVDSRYRNRALMSPAGMLRGDFSLRLFNVTPQDEQKFHCLVLSPSLGFQEVLSVEVTLHVAANFSVGSGGGGSEPKSSDKTHTCPPCPAPEAEGAPSVFLFPPKPKDTLMISRTPEVTCVVVDVSHEDPEVKFNWYVDGVEVHNAKTKPREEQYNSTYRVVSVLTVLHQDWLNGKEYKCKVSNKALPAPIEKTISKAKGQPREPQVYTLPPSREEMTKNQVSLTCLVKGFYPSDIAVEWESNGQPENNYKTTPPVLDSDGSFFLYSKLTVDKSRWQQGNVFSCSVMHEALHNHYTQKSLSLSPG
a: 78300
